# ASSAY_TEXT: Half-lives and pharmacokinetic parameters of polypeptides vs HM-1; further: test concentration or dose not given here
# EXPERIMENTAL_PARAMETERS: in vivo, T1/2β (half-life)
Peptide text beside a SMILES is read from it. * marks the point of attachment. X29 = O=C1C=CC(=O)N1CCOCCOCCOCCOCCOCCOCCCC(=O)*; X11 = O=C1C=CC(=O)N1CCOCCOCCOCCOCCOCCCCCC(=O)*; X74 = O=C1C=CC(=O)N1c1cccc(CCCCCCCCCCC(=O)*)c1; X48 = O=C1C=CC(=O)N1CCCCCCCCCCCC(=O)*; X75 = O=C1C=CC(=O)N1c1cccc(CC(=O)*)c1; X1 = O=C1C=CC(=O)N1CCOCCCC(=O)*
MEASURE_NAME: half-life (h)
Write the answer as a number in h, unit excluded.

Example entries and their recorded answers appear below.
C[C@H](NC(=O)CNC(=O)[C@H](CCCNC(=N)N)NC(=O)CCCCCCCCCCCN1C(=O)C=CC1=O)C(=O)N[C@@H](CC(=O)O)C(=O)N[C@@H](CCCNC(=N)N)C(=O)N[C@@H](C)C(=O)NCC(=O)NCC(=O)NCC(=O)NCC(=O)N[C@@H](CCCNC(=N)N)C(=O)NCC(=O)N[C@@H](CC(=O)O)C(=O)O [X11] (X48-RGADRAGGGGRGD-OH): 31.1
C[C@H](NC(=O)CNC(=O)[C@H](CCCNC(=N)N)NC(=O)Cc1cccc(N2C(=O)C=CC2=O)c1)C(=O)N[C@@H](CC(=O)O)C(=O)N[C@@H](CCCNC(=N)N)C(=O)N[C@@H](C)C(=O)NCC(=O)NCC(=O)NCC(=O)NCC(=O)N[C@@H](CCCNC(=N)N)C(=O)NCC(=O)N[C@@H](CC(=O)O)C(=O)O [X25] (X75-RGADRAGGGGRGD-OH): 30.6
C[C@H](NC(=O)CNC(=O)[C@H](CCCNC(=N)N)NC(=O)CCCOCCN1C(=O)C=CC1=O)C(=O)N[C@@H](CC(=O)O)C(=O)N[C@@H](CCCNC(=N)N)C(=O)N[C@@H](C)C(=O)NCC(=O)NCC(=O)NCC(=O)NCC(=O)N[C@@H](CCCNC(=N)N)C(=O)NCC(=O)N[C@@H](CC(=O)O)C(=O)O [X51] (X1-RGADRAGGGGRGD-OH): 40.3
C[C@H](NC(=O)CNC(=O)[C@H](CCCNC(=N)N)NC(=O)CCCCCCCCCCc1cccc(N2C(=O)C=CC2=O)c1)C(=O)N[C@@H](CC(=O)O)C(=O)N[C@@H](CCCNC(=N)N)C(=O)N[C@@H](C)C(=O)NCC(=O)NCC(=O)NCC(=O)NCC(=O)N[C@@H](CCCNC(=N)N)C(=O)NCC(=O)N[C@@H](CC(=O)O)C(=O)O [X34] (X74-RGADRAGGGGRGD-OH): 34.4
C[C@H](NC(=O)CNC(=O)[C@H](CCCNC(=N)N)NC(=O)CCCOCCOCCOCCOCCOCCOCCN1C(=O)C=CC1=O)C(=O)N[C@@H](CC(=O)O)C(=O)N[C@@H](CCCNC(=N)N)C(=O)N[C@@H](C)C(=O)NCC(=O)NCC(=O)NCC(=O)NCC(=O)N[C@@H](CCCNC(=N)N)C(=O)NCC(=O)N[C@@H](CC(=O)O)C(=O)O [X86] (X29-RGADRAGGGGRGD-OH): 32

Next, consider the following compound.
Item C[C@H](NC(=O)CNC(=O)[C@H](CCCNC(=N)N)NC(=O)CCCCCOCCOCCOCCOCCOCCN1C(=O)C=CC1=O)C(=O)N[C@@H](CC(=O)O)C(=O)N[C@@H](CCCNC(=N)N)C(=O)N[C@@H](C)C(=O)NCC(=O)NCC(=O)NCC(=O)NCC(=O)N[C@@H](CCCNC(=N)N)C(=O)NCC(=O)N[C@@H](CC(=O)O)C(=O)O [X81] (X11-RGADRAGGGGRGD-OH) has what recorded half-life?
38.1
